The reported numbers originate from the nanobody polyreactivity screen of Harvey et al. (2022).

MEASUREMENT PROTOCOL: yeast display, Sf9 membrane polyspecificity reagent, FACS + sequencing; frameworks hold sequencing errors
OBSERVATION TYPE: polyreactivity (PSR sort gate)

RESIDUES: QVQLVESGGGLVQAGGSLRLRCAASGRIFRKYAMGWYRQAPGKERELVAAITSGGSTYYADSVKGRFTISRDNAKNTVYLQMNSLKPEDTAVYYCAAFYRGGDYWGQGTQVTVSS
RECORDED VALUE: high polyreactivity
--
RESIDUES: QVQLVESGGGLVQAGGSLRLSCAASGRIFRWYAMGWYRQAPGKERELVATITRSGGSTYCADSVKGRFTISRDNAKNTVYLQMNSLKPEDTAVYYCAARWRLTPSWLPYVQSSAGYDYWGQGTQVTVSS
RECORDED VALUE: high polyreactivity

* * *

MEASUREMENT PROTOCOL: yeast display, Sf9 membrane polyspecificity reagent, FACS + sequencing; frameworks hold sequencing errors
OBSERVATION TYPE: polyreactivity (PSR sort gate)

Examples with answers:
RESIDUES: QVQLVESGGGLVQAGGILRLSCAASGFNFSSYAMAWYRQAPGKERELVAAISGSGGTTYYADSVKGRFTISRDNANNTVYVLMNSLKPEDTAVYYCATRRGLVITKYGYDYWGQGTQVTVSS
polyreactivity (PSR sort gate): high polyreactivity
--
RESIDUES: QVQLVESGGGLVQAGGSLRLSCAASGRTFFPNAMGWYRQAPGKERELVASITSRGGGTYYADSVKGRFTISRDYAKNTVYLQMNSLKPEDTAVYYCADDRYYFSPGYNWWSEGYDYWGQGTQVTVSS
polyreactivity (PSR sort gate): low polyreactivity
--
RESIDUES: QVQLVESGGGLVQAGGSLRLSCAASGFTFRTNVMGWYRQAPGKERELVAVITRDGGSTYYADSVKGRFTISRDNAKNTVYLQMNSLKPEDTAVYYCNAAAFINFILYDYWGQGTQVTVSS
polyreactivity (PSR sort gate): high polyreactivity
--
RESIDUES: QVQLVESGGGLVQAGGSLRLSCAASGSIFGYKAMGWYRQAPRKERELVAAIRSSDSRTHYADSVKGRFTISRDNAKNTVYLQMNRLKPEDTAVYYCAAVKRRPGHYLYDYWGQGTQVTVSS
polyreactivity (PSR sort gate): low polyreactivity

--- query ---
Asked: Look up polyreactivity (PSR sort gate) for this sequence: QVQLVESGGGLVQAGGSLRISCAASGFTFYRYAMGWYRQAPGKERELVAAISSDGTTYNADSVKGRFTISRDNAKNTVYLQINSLKPEDNAVYYCAKRGYYRSRRYDYWGQGTQVNVSS
Given back: high polyreactivity

* * *

MEASUREMENT PROTOCOL: yeast display, Sf9 membrane polyspecificity reagent, FACS + sequencing; frameworks hold sequencing errors
OBSERVATION TYPE: polyreactivity (PSR sort gate)

RESIDUES: QVQLVESGGGLVQAGGRLRLSCAASGRIFVVYAMGWSRQAPGKERELVAAISKRGGSTYYADSVKGRFTISRDNAKYTVYLQMNTLKPEDTAVYYCAAGRYKSDLMDYWGQGTQVTVSS
polyreactivity (PSR sort gate): high polyreactivity
--
RESIDUES: QGQLVESGGGLVQAGGSLRLSCAASGSTSGKNAMGWYRQAPGQERELVAVITYSGSRTYYADSVKGRFTISRDNAKNTVYLQMNSLKPEDTAVYYCATRGLKTYQAYDYWGQGTQVTVSS
polyreactivity (PSR sort gate): high polyreactivity
--
RESIDUES: QFQLVESGGGLVQAGGSLRLSCAASGSIFDIYAMGWYRPAPGKERELVADITISGGSTYYADSVKGRFTISRDNAKNTVYLQLNSLIPEDTAVYYCAADVTVVLGYKYDYWGQGTQVTVSS
polyreactivity (PSR sort gate): low polyreactivity
--
RESIDUES: QVQLVESGGGLVQAGGSLRLSCADSGSTFRRYTMGWYRQAPGKERELVASITRSGGSKYYADSVKGRFTISRDNAKNTVYLQMNSLKPEDTAVYFCNKLSGYGWRSYGYWGQGTQVTVSS
polyreactivity (PSR sort gate): high polyreactivity
--
RESIDUES: QVQLVESGGGLVQAGGSLRLICAASGRIFVRNARGLYRQAPGTERELVASISQNGGRTYYADSVKGRFTISRDNAKNTVYLQMNSLKPEDTAVYYCARGRGGSRPGLDYWGQGTQVTVSS
polyreactivity (PSR sort gate): high polyreactivity

Asked: Given the sequence QVQLVESGGGLVQAGGSLRLSCAASGRTFDAYAMGWYRQAPGKERELVAAIRRGSSTNYADSVKGRFTISRDNAKNTVYLQMNSLKPEDTAVYYCAARRQWLGIRTGYNYWGQGTQVTVSS , what is its reported polyreactivity (PSR sort gate)?
Given back: high polyreactivity

Asked: Give its polyreactivity (PSR sort gate) value. Item: QVQLVESGGGLVQAGGSLRLSCAASGSIFIRNAMGWYRQAPGKERELVAAISGSGSSTYYADSVKGRFTISRDNAKNTVYLQMNSLKPEDTSVYYCNTDRNHSYQYGGYDYWGQGTQVTVSS
Given back: low polyreactivity

Asked: Recorded polyreactivity (PSR sort gate) for QVQLVESGGGLVQAGGSLRLSCAASGSTFIGNAMGWYRQAPGKERELVAAITSSGGSTYYADSVKGRFTISRDNAKNTVYLQMNSLKPEDTAVYYCAAKSRRTRRSYYWGQGTQVTVSS , please?
Given back: high polyreactivity

Asked: So what does the record say about polyreactivity (PSR sort gate) for KVQHVESGGGLVQAGGSLRLSSAASGRISWSYAMGWYRQAPGKESELVAAITSGGTTNYAYSVKGRFTISRDNAKYTVYLQMNSLKPEDTAVYYCARDSYQLGLIRDPLEYDFWGKGTQVTVSS ?
Given back: low polyreactivity

Asked: Would you kindly share the measured polyreactivity (PSR sort gate) for QVQLVESGGGLVQAGGSLRLSCSASGRTFLYDMGWYTHATGKELELVAAISRGGSTSYADSVKGRFTISRDNAKNTVYLQMNSLKPEDTAVYYCATRGLVGYYSYYYWGQGTQVTVSS ?
Given back: high polyreactivity

Asked: Item under review: QVQLVESGGGLVQAGGSLRLSCAASGRTFFPYAMGWYRQAPGKEREFVAAITWSGGSTTYADSVKGRFTISRDNAKNTVYLQMTSLKPEDTAVYYCNDGRRRSYSYDYWGQGTQVTVSS . Reported polyreactivity (PSR sort gate)?
Given back: low polyreactivity

Asked: Please give the measured polyreactivity (PSR sort gate) for this sequence: QVQLVESGGGLVQAGGSLRLSCAASGRTFAYNAMGWYRQAPGKERELVAAISSSGGSTYYADSVKGRFTISRDNAKNTVYLQMNSLKPEDTAGYYCATQGFSWAHGSDYWGQGTQVTVSS
Given back: low polyreactivity

Asked: Reported polyreactivity (PSR sort gate) for QVHLVESGGGLVQAGGSLRLSCAASGRIFKKYAMGWYRQAPGKESELVATISSGGSTYYADSVKGRFTISRDNAKNTVYLQMNSLNPEDTAVYYCARREYVRRDYFVTTYDYWGQGTQVTVSS : what is it?
Given back: low polyreactivity

Asked: Requested field: polyreactivity (PSR sort gate). Item: QVQLVESGGGLVQAGGSLRISCAASGFTFYRYAMGWYRQAPGKESELVAAITRSGRTYYADSVKGRFTISRDNAKNTFYLQMNSLKPEDTAVYYCYADWGLGTQVTVSS
Given back: high polyreactivity

Asked: Which polyreactivity (PSR sort gate) is reported for this sequence? QVQLVESGGGLVQAGGSLRLSCAASGRTFRNAMGWYRQEPVKEREFVATITWSGGSTYYADSVKGRFTISRDNAKNTVYLQMNSLKPEDTAVYYCAAEGRLWDWQRYDYWGQGTQVTVSS
Given back: low polyreactivity

Asked: Request the reported polyreactivity (PSR sort gate) associated with QVQLVESRGGLVQAGGSLRLSCAATGSIFFSNTMGWYRQAPGTEREMVAAITSTGTTNYADSVKGRFTISRDNAKKTVYLQMNSLKPEDTAVFYCAVRARRWRYNYWGQGTQVTVSS
Given back: high polyreactivity

Asked: Endpoint output: polyreactivity (PSR sort gate) of QVQLVESGGGLVQAGGSLRISCAPSGITFKDYAMGWYRQAPGKERELVAVISYSGGSTYYADTVKGRFTISRDNAKNTVYLQMNSLKPEDTAVYYCAARVGPEYDWGQGTQVTVSS . Value?
Given back: low polyreactivity

Asked: Bench note: what polyreactivity (PSR sort gate) did QVQLVESGGGLVQAGGSLRLSCAASGRTFVLNAMGWYRQAPGKERELVAAITLGGGSTYADSVKGRLTISRDNAKNTVYLQMNSLKPEDTEVYYCNKASGVFYGHLDYWGQGTQVTVSS show?
Given back: low polyreactivity

Asked: # polyreactivity (PSR sort gate) lookup, item QVQLVESGGGLVQAGGSLRLSCAASGRTFPNYAMGWYRQAPGKERELVAAISYSGGTTYYADSVKGRFTISRDNAKNTVYLQMNSLKPEDTAVYDCNALRLGYGLFHYDYWGQGTQVTVSS
Given back: low polyreactivity

Asked: polyreactivity (PSR sort gate) lookup needed for QVQLVESGGGLVQAGGSLRFSCAASGFIFSNYAMGWYRQAPGKERELVAAITSGGSTNYADSVKGRFTISRDNAKNTVYLQMNSLKPEDTAVYYCAAERGDTAYRKYDYWGQGTQVTVSS , thanks.
Given back: low polyreactivity

Asked: Dear colleague, I am looking for the recorded polyreactivity (PSR sort gate) of the following sequence: QVQLGESGGRLVQAGGSLRLSCAASGRTIVINAMGWYRKEPGKERELVAAISRGGSTNYADSVKGRFTISRDNAKNTVYLQMNRLKPEDTAVYYCKADYPNWWSPFDYWGQGTQVTVSS
Given back: low polyreactivity
